Target: Proteasome subunit beta (Trypanosoma cruzi) (UniProt O96673)
Sequence (O96673 as listed by the source): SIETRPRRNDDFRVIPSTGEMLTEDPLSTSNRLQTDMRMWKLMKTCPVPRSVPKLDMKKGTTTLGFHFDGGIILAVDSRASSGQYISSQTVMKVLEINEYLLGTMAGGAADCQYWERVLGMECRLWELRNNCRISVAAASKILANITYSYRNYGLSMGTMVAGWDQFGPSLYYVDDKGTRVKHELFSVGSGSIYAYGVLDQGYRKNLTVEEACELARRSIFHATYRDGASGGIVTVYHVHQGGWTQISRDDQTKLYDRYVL
Test: Trypanosoma cruzi proteasome chymotrypsin-like activity (TcProtChymo) assay.
Assay type: functional
Design: scale not given: in the data most compounds retested in dose-response had high values
Settings: 9.37 µM
QUANTITY NAME: Percent Effect

molecule=CC(C)n1cc(CN2CCCN(C(=O)c3ccc[nH]3)CC2)cn1 quantity_name="Percent Effect" observed_value=20.2%

Query: Please give the measured Percent Effect for this molecule: Cc1nc(C2CCCN2Cc2nc(C)c(C)o2)no1 (centres undefined)
Result: 4.49%

Query: Also, O=C(NCC1CC1)[C@H]1C[C@@H]2CN(S(=O)(=O)Cc3ccccc3)C[C@H]1O2 please.
Result: 9.25%

Query: Also, O=C(c1cnoc1)N1CCC[C@]2(C[C@H](Oc3ncccc3F)CO2)C1 please.
Result: 11.7%

Query: Also, CCCS(=O)(=O)Nc1ccc2c(c1)OCC(C)(C)C(=O)N2C please.
Result: 12.6%
